- Target Or Test System: Lipoprotein-Related Phospholipase A2 (Lp-PLA2) in Human Plasma (Homo sapiens, UniProt Q13093)
- Construct: 40 μL of equally-divided and thawed mixed human plasma is pre-added
- Measurement Description: Determination of Lp-PLA2 in human plasma (Thio-PAF assay)
- Protocol Conditions: mixed human plasma, 2-thio-PAF substrate, 30 minutes pre-incubation at room temperature
Experimental Readout: IC50 (nM)
Answer in nM, number only, no unit symbol.

Please review the following examples before continuing.
compound=Cc1c(OCc2ccc(Oc3ccnc(C(F)(F)F)c3)c(F)c2)nc(=O)n2c1N1C[C@@H]3C[C@@]1(CC2)CO3 experimental_readout=IC50 unit_string=nM quantitative_readout=5.1
compound=COc1c(OCc2ccc(Oc3ccnc(C(F)(F)F)c3)c(F)c2)nc(=O)n2c1N1C[C@@H]3C[C@@]1(CC2)CO3 experimental_readout=IC50 unit_string=nM quantitative_readout=5.2
compound=O=c1nc(OCc2ccc(Oc3ccnc(C(F)F)c3)c(F)c2)cc2n1CC[C@]13CO[C@H](CN21)C3 experimental_readout=IC50 unit_string=nM quantitative_readout=8.1

Entry O=c1nc(OCc2cc(F)c(Oc3cnc(C(F)(F)F)nc3)c(F)c2)cc2n1CCC1CCCN21 (stereo not shown) , IC50 reported as 97.1

====

- Target Or Test System: Lipoprotein-Related Phospholipase A2 (Lp-PLA2) in Human Plasma (Homo sapiens)
- Construct: 40 μL of equally-divided and thawed mixed human plasma is pre-added
- Sequence (Q13093 22-441): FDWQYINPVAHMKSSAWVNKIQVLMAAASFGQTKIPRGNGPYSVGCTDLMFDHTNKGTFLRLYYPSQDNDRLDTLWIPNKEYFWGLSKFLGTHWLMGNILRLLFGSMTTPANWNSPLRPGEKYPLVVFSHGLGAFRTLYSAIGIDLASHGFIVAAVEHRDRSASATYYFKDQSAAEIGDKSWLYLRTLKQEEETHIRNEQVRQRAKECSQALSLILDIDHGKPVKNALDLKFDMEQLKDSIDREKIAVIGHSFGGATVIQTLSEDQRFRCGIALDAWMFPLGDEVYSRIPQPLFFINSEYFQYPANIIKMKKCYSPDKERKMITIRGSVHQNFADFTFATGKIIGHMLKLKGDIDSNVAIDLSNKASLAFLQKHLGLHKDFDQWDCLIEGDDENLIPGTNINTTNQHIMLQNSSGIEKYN
- Measurement Description: Determination of Lp-PLA2 in human plasma (Thio-PAF assay)
- Protocol Conditions: mixed human plasma, 2-thio-PAF substrate, 30 minutes pre-incubation at room temperature
pIC50: −log10 of the molar value.
Label Yes when pIC50 is at or above 8; anything below gets No.

Consider the following illustrative entries.
molecule=O=c1nc(OCc2ccc(Oc3ccnc(C(F)(F)F)c3)c(F)c2)c(Cl)c2n1CC[C@]13CO[C@H](CN21)C3 classification=Yes
molecule=O=c1nc(OCCc2ccc(Oc3ccc(Cl)c(C(F)(F)F)c3)cc2)cc2n1CCC13CC(CN21)C3 classification=No

[in] Decide: is the reported value of pIC50 for N#Cc1c(OCc2ccc(Oc3ccnc(C(F)(F)F)c3)c(F)c2)nc(=O)n2c1N1CCCC1CC2 (stereo not drawn) equal to or greater than 8?
[out] Yes

[in] Check the entry CC12CCCN1c1cc(OCc3ccc(F)c(C#N)c3)nc(=O)n1CC2 (stereo not drawn) : does pIC50 equal or exceed 8?
[out] No

[in] Is pIC50 for CCC12CCCN1c1cc(OCc3cc(F)c(Oc4ccc(Cl)c(C(F)(F)F)c4)c(F)c3)nc(=O)n1CC2 (stereo not drawn) at or above 8?
[out] No
